SYSTEM TESTED: PPAR Alpha (Homo sapiens, UniProt Q07869)
Sequence (Q07869 1-468): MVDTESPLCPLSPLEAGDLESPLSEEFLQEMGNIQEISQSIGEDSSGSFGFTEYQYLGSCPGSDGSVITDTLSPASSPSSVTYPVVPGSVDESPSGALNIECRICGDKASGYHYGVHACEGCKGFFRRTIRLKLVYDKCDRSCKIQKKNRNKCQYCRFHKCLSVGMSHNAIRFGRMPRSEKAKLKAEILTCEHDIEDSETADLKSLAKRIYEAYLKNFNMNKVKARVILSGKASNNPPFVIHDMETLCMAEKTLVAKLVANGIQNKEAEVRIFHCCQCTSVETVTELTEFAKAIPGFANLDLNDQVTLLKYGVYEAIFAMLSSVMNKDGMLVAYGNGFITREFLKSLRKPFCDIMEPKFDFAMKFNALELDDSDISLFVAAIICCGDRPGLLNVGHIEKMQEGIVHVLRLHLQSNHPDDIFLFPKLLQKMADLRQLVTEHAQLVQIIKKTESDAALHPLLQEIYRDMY
ASSAY SUMMARY: PathHunter NHR protein interaction / nuclear translocation agonist test, PPAR Alpha
Format: cell-based
TEST SETTINGS: agonist mode; read-out: PPAR Alpha EC50
pEC50: −log10 of the molar value.
MEASUREMENT KIND: pEC50

CSc1ccc(C(=O)C2CN(C(=O)c3ccccc3)CC2c2cc(C)c(OC(C)(C)C(=O)O)c(C)c2)cc1 (single isomer, unassigned) [Compound 16] : < 6.60
CSc1ccc(C(=O)C2CN(C(=O)OCc3ccccc3)CC2c2cc(C)c(OC(C)(C)C(=O)O)c(C)c2)cc1 (single isomer, unassigned) : < 6.60
CSc1ccc(C(=O)[C@H]2CNC[C@@H]2CCc2cc(C)c(OC(C)(C)C(=O)O)c(C)c2)cc1 (racemic) : < 6.60
CSc1ccc(C(=O)C2CN(C(=O)OC(C)C)CC2c2cc(C)c(OC(C)(C)C(=O)O)c(C)c2)cc1 (single isomer, unassigned) : < 6.60
CSc1ccc(C(=O)C2CN(C(=O)Oc3ccccc3)CC2Cc2ccc(OC(C)(C)C(=O)O)c(F)c2)cc1 (single isomer, unassigned) : 6.82 to 7.00
CSc1ccc(C(=O)C2CN(C(=O)Oc3ccc(Cl)cc3)CC2Cc2cc(C)c(OC(C)(C)C(=O)O)c(C)c2)cc1 (single isomer, unassigned) : > 7.00
CSc1ccc(C(=O)[C@@H]2CN(C(=O)Oc3ccc(Cl)cc3F)C[C@H]2c2cc(C)c(OC(C)(C)C(=O)O)c(C)c2)cc1 (single isomer, unassigned) : > 7.00
CSc1ccc(C(=O)C2CN(S(C)(=O)=O)CC2c2cc(C)c(OC(C)(C)C(=O)O)c(C)c2)cc1 (single isomer, unassigned) : 6.60 to 6.70
CSc1ccc(C(=O)C2CN(C(=O)OC3CCCC3)CC2CCc2cc(C)c(OC(C)(C)C(=O)O)c(C)c2)cc1 (single isomer, unassigned) : > 7.00
CSc1ccc(C(=O)C2CN(C(=O)Oc3ccccc3)CC2CCc2ccc(OC(C)(C)C(=O)O)cc2)cc1 (single isomer, unassigned) : > 7.00

Query string: Which pEC50 is reported for this compound? CCOC(=O)N1CC(C(=O)c2ccc(SC)cc2)C(c2cc(C)c(OC(C)(C)C(=O)O)c(C)c2)C1 (single isomer, unassigned)
Result string: < 6.60

Query string: Let us now turn to CSc1ccc(C(=O)C2CN(C3COC3)C[C@@H]2CCc2cc(C)c(OC(C)(C)C(=O)O)c(C)c2)cc1 (mixture of isomers)
Result string: 6.60 to 6.70

Provenance of the data: patent US10526320B2
